# Test system: Trypanosoma brucei
# test.name: Trypanosoma brucei 72 hour study
# Format: functional, organism-based
# Set-up: scale not given: in the data most compounds retested in dose-response had high values
# setup.conditions: 30 µM; 30.03 µM
Hit rate of the full screen: of about 66,000 compounds, about 960 (1.5%) showed an effect of 50% or more. The sample holds strong results, similar compounds and a random draw of the others, so the mix is not that of the screen.
metric.name: Percent Effect (%)
Give bare numbers, in %.

Solved entries:
Cc1ccc(-c2cc(C(F)(F)F)nc(N3CCOCC3)n2)s1: -24.17
CCc1cc(N[C@@H]2C[C@H]3CC[C@@H]2C3)n2nccc2n1: 24.99
O=C(O)C1CCCN1c1nc(-c2ccc(Cl)c(Cl)c2)cc(C(F)(F)F)n1 (stereo unspecified): -7.275
CCCn1c(C)c(CC(=O)NC(C)CO)c2c1CC(C)(C)CC2=O (stereo unspecified): -12.97
Cc1nnc(NC(=O)c2cc(S(=O)(=O)N3CCSCC3)c[nH]2)s1: 37.66
Cc1ccc(NC(=O)c2cc(S(=O)(=O)N3CCCCC3)c[nH]2)cc1F: -33.42
CCCn1c(C)c(CC(=O)NC)c2c1CC(C)(C)CC2=O: 24.04
CCCn1cc(-c2ccnc(NC3CCc4ccccc4C3)n2)c(C)n1 (stereo unspecified): 2.067

Would you be so kind as to report Percent Effect for each listed record?
1. CC(C)n1c(=O)c2ccccc2n(CCCN(C)C)c1=O.Cl
2. CCCn1c(C)c(CC(=O)N[C@H](C)C(=O)OC)c2c1CC(C)(C)CC2=O
3. COc1cc(F)ccc1N(C)Cc1ccccn1

Result:
2.697
85.29
73.53

---

# System: Trypanosoma brucei
# test.name: Trypanosoma brucei 72 hour study
# Type: functional, organism-based
# Design: scale not given: in the data most compounds retested in dose-response had high values
# setup.conditions: 30.3 µM; […]
Out of some 66,000 compounds screened, about 960 (1.5%) showed an effect of 50% or more. For the sample, strong results were picked, then their nearest neighbours and some compounds at random.
metric.name: Percent Effect (%)
Numbers only, in %.

FC1(F)CCN(Cc2cccnc2)CC12CCN(c1cnccn1)C2.O=C(O)C(F)(F)F.O=C(O)C(F)(F)F.O=C(O)C(F)(F)F (stereo not drawn): -8.346
Cn1cc(CN2CCC(F)(F)C3(CCN(c4ncc(F)cn4)C3)C2)cn1.O=C(O)C(F)(F)F (stereo not drawn): -7.399

Each compound below has a recorded value; state its Percent Effect.
1. Cc1nc(C(=O)NS(=O)(=O)c2cccc(C#N)c2)cs1
2. Cn1cc(CN2CCC(F)(F)C3(CCN(c4ccccn4)C3)C2)cn1.O=C(O)C(F)(F)F.O=C(O)C(F)(F)F (stereo not drawn)

Result:
1. 2.101
2. -14.43

---

Can you tell me Percent Effect for the items I'm about to list?
# Test system: Trypanosoma brucei
# test.name: Trypanosoma brucei 72 hour study
# Type: functional, organism-based
# Design: scale not given: in the data most compounds retested in dose-response had high values
# setup.conditions: 30 µM; 30.03 µM
Screen size: about 66,000 compounds; about 960 (1.5%) showed an effect of 50% or more. Only a selection was taken, and strong results are over-represented in it overall.
One number for each entry, in %.

Solved entries:
Cc1ccc(CN2Cc3c(cnn3C)C(COCC3CC3)C2)s1 (stereo unspecified): 38.62
Cc1cccc(Cc2nc3c([nH]2)CCCNC3=O)c1: -3.182
CC(C)Oc1cccc(-c2nc3c([nH]2)CCCNC3=O)c1: -40
Cc1cn2cc(-c3nc4c([nH]3)CCCNC4=O)nc2s1: 81.5
O=C1N(Cc2ccc(F)c(F)c2)CCCC1(O)CNCC1CCCCC1 (stereo unspecified): -26.1

// next item, Percent Effect requested
Task: Any idea what its Percent Effect is? The compound is Cc1cccc2nc(-c3nc4c([nH]3)CCCNC4=O)cn12
Result: 66.46
